- Run Description: NCI Yeast Anticancer Drug Screen. Data for the rad50 strain (AID 155);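 note: 0% = growth of vehicle-only cultures of the same strain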
- Reported Conditions: S. cerevisiae rad50 strain growth inhibition; at 50.0 µM; stronger effect = higher value
The panel holds about 79,000 compounds, 15% with a hit somewhere; the sample as a whole holds those more often.
molecules and their reported growth inhibition

{"Molecule": "CCCCOC(OCCCC)c1ccccc1", "Unit Info": "%", "growth inhibition": -26.5}
{"Molecule": "CCCC(C)OCC(=O)O (stereo not drawn)", "Unit Info": "%", "growth inhibition": 31.6}
{"Molecule": "C/C(O)=C(\\C=N\\C(N)=S)C(=O)Nc1ccccc1", "Unit Info": "%", "growth inhibition": -4.6}
{"Molecule": "COC(=O)Nc1nc2ccc(C(=O)c3ccc(F)cc3)cc2[nH]1", "Unit Info": "%", "growth inhibition": -9}
{"Molecule": "COc1cccc(O)c1O", "Unit Info": "%", "growth inhibition": 3.45}
{"Molecule": "CC1CCC(C(=O)O)N1 (stereo not drawn)", "Unit Info": "%", "growth inhibition": 29.6}
{"Molecule": "O=c1cc(-c2ccccc2)nc2cc(-c3ccco3)[nH]n12", "Unit Info": "%", "growth inhibition": -8.1}
{"Molecule": "O=C(Cc1nc2ccc([N+](=O)[O-])cc2nc1CC(=O)c1cccnc1)c1cccnc1", "Unit Info": "%", "growth inhibition": 14.3}
{"Molecule": "O=c1[nH][nH]c(=O)c2cc([N+](=O)[O-])ccc12", "Unit Info": "%", "growth inhibition": 32.9}
{"Molecule": "COc1ccc(C(C)C=O)cc1 (stereo not drawn)", "Unit Info": "%", "growth inhibition": 5.55}
{"Molecule": "O=C1N(C[P+](c2ccccc2)(c2ccccc2)c2ccccc2)CCCN1C[P+](c1ccccc1)(c1ccccc1)c1ccccc1", "Unit Info": "%", "growth inhibition": 17.4}
{"Molecule": "NCCCN", "Unit Info": "%", "growth inhibition": 8.9}
{"Molecule": "O=C(O)CNC(=O)c1ccccc1", "Unit Info": "%", "growth inhibition": -46}
{"Molecule": "CC1(O)CCCCC1O (stereo not drawn)", "Unit Info": "%", "growth inhibition": -8.1}
{"Molecule": "CC(=O)NC(N)=S", "Unit Info": "%", "growth inhibition": 2.3}
{"Molecule": "COc1ccccc1N1CCN(C(=S)Nc2ccccc2)CC1", "Unit Info": "%", "growth inhibition": 32.3}
{"Molecule": "O=C1C=CC2=C3c4cc(O)c(O)cc4CC3(O)COC2=C1O (stereo not drawn)", "Unit Info": "%", "growth inhibition": -40.6}
{"Molecule": "Cc1cc(N2CCC(N3CCCC3)CC2)nc(/N=C(\\N)Nc2ccc(Cl)c(Cl)c2)n1", "Unit Info": "%", "growth inhibition": 18.1}
{"Molecule": "C=C[Si](OC(C)=O)(OC(C)=O)OC(C)=O", "Unit Info": "%", "growth inhibition": 27.2}
{"Molecule": "O=S(=O)(Cc1ccccc1)c1ccccc1", "Unit Info": "%", "growth inhibition": 4.6}
{"Molecule": "CSc1[nH]c(=O)ncc1F", "Unit Info": "%", "growth inhibition": 4.15}
{"Molecule": "COC(=O)Nc1nc2ccc(C(=O)c3cccs3)cc2[nH]1", "Unit Info": "%", "growth inhibition": -1.25}
{"Molecule": "COc1cc(CN)ccc1O", "Unit Info": "%", "growth inhibition": 1.65}
{"Molecule": "O=C(NCc1ccco1)Nc1c(Cl)cc(Cl)cc1Cl", "Unit Info": "%", "growth inhibition": -3.1}
{"Molecule": "CCCC1(c2ccccc2)NC(=O)NC1=O (stereo not drawn)", "Unit Info": "%", "growth inhibition": 5.75}
{"Molecule": "CC(=O)c1cc2c(cc1F)C(C)(C)CCC2(C)C", "Unit Info": "%", "growth inhibition": -23.2}
{"Molecule": "O=C1NC(=O)C2C(=O)NC(=O)C1C21CCc2ccccc21 (stereo not drawn)", "Unit Info": "%", "growth inhibition": -8.5}
{"Molecule": "COc1ncnc2c1cnn2C", "Unit Info": "%", "growth inhibition": 7.6}

* * *

- Run Description: NCI Yeast Anticancer Drug Screen. Data for the bub3 strain (AID 167)
- Reported Conditions: S. cerevisiae bub3 mutant strain, at 50.0 µM, stronger effect = higher value
This is part of a sample that, as a whole, favours compounds with a hit. Of some 79,000 tested, about 15% had one in any assay.
Each entry below carries its reported growth inhibition.

{"Molecule": "CC(C)=NNc1ccc([N+](=O)[O-])cc1[N+](=O)[O-]", "growth inhibition (%)": -5.75}
{"Molecule": "CC(C)CCOC(=O)c1ccccc1", "growth inhibition (%)": -29.1}
{"Molecule": "COc1cc(C(=O)NC(=S)Nc2ccc3ccccc3c2)cc(OC)c1OC", "growth inhibition (%)": -3.4}
{"Molecule": "NC(C(=O)O)C(O)c1ccco1 (stereo not drawn)", "growth inhibition (%)": 3.75}
{"Molecule": "O=c1cc(-c2ccccc2)[nH]c2c1CCCC2", "growth inhibition (%)": 0.95}
{"Molecule": "O=C1Cc2ccccc2C(=O)O1", "growth inhibition (%)": -5.15}
{"Molecule": "O=P(O)(O)OCC(O)CO (stereo not drawn)", "growth inhibition (%)": -22.1}
{"Molecule": "COc1ccc(-c2cc3c(nn2)-c2ccccc2C3=O)cc1", "growth inhibition (%)": -19.1}
{"Molecule": "Cc1nc2ccccc2c(C(=O)O)c1O", "growth inhibition (%)": 11.1}
{"Molecule": "CC1CCC(C(=O)O)N1 (stereo not drawn)", "growth inhibition (%)": -3.2}
{"Molecule": "O=S(=O)(Cc1ccccc1)c1ccccc1", "growth inhibition (%)": -17.5}
{"Molecule": "N#Cc1ccc(OC(=O)Nc2ccc(Cl)c(Cl)c2)cc1", "growth inhibition (%)": 9.95}
{"Molecule": "CC(=O)NCc1cc(C)c(C)cc1C", "growth inhibition (%)": 5.3}
{"Molecule": "C=CCNc1nnc(C)s1", "growth inhibition (%)": -15}
{"Molecule": "Oc1ccc(O)cc1", "growth inhibition (%)": -0.85}
{"Molecule": "CC1OC(Oc2c(-c3ccc(O)c(O)c3)oc3cc(O)cc(O)c3c2=O)C(O)C(O)C1O (stereo not drawn)", "growth inhibition (%)": 20.9}
{"Molecule": "CC1(c2ccccc2)NC(=O)NC1=O (stereo not drawn)", "growth inhibition (%)": -7.65}
{"Molecule": "CNS(=O)(=O)c1ccc(Cl)c(Cl)c1", "growth inhibition (%)": -25.4}
{"Molecule": "O=[N+]([O-])c1ccc(Sc2ccncn2)c([N+](=O)[O-])c1", "growth inhibition (%)": -12.3}
{"Molecule": "O=S(=O)(O)C(Nc1ccccc1)c1ccccc1 (stereo not drawn)", "growth inhibition (%)": 16}
{"Molecule": "c1ccc(Cc2ccccc2)cc1", "growth inhibition (%)": -1.1}
{"Molecule": "CCOC(=O)C1=C(C)NC(=O)NC1c1cccs1 (stereo not drawn)", "growth inhibition (%)": -14.2}
{"Molecule": "Cc1cc(=O)n(-c2ccc(F)cc2)[nH]1", "growth inhibition (%)": 50.6}
{"Molecule": "CN(C)CCC(=O)c1ccc(O)cc1", "growth inhibition (%)": -14.8}
{"Molecule": "NC(=S)CN1CCOCC1", "growth inhibition (%)": 1.3}
{"Molecule": "Cc1cc(Cc2cc(C)c(N)cc2N)c(N)cc1N", "growth inhibition (%)": -2.25}
{"Molecule": "O=c1cc(-c2ccccc2)nc2cc(-c3ccco3)[nH]n12", "growth inhibition (%)": -2.6}
{"Molecule": "O=C(c1ccccc1)C1CCC1", "growth inhibition (%)": 7.95}
{"Molecule": "C#C[C@H]1CCCCCC1O (stereo partly drawn)", "growth inhibition (%)": -6.75}
{"Molecule": "O=C1OC(=O)C2C1C1(Cl)C(Cl)=C(Cl)C2(Cl)C2C(=O)OC(=O)C21 (stereo not drawn)", "growth inhibition (%)": 25.3}
{"Molecule": "Cc1ccc(/C=C2\\SC(=S)N(c3ccc(F)cc3)C2=O)o1", "growth inhibition (%)": 15.8}
{"Molecule": "O=C(CCl)N1CCN(C/C=C/c2ccccc2)CC1", "growth inhibition (%)": 39.9}
{"Molecule": "O=S(=O)(O)c1ccc(O)c2ccccc12", "growth inhibition (%)": 11.7}

* * *

The reader will find reported growth inhibition values listed item by item below.
- Run Description: NCI Yeast Anticancer Drug Screen. Data for the rad50 strain (AID 155);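 note: 0% = growth of vehicle-only cultures of the same strain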
- Reported Conditions: S. cerevisiae rad50 strain growth inhibition; at 50.0 µM; stronger effect = higher value
Compounds without any hit were thinned out: in the full panel of roughly 79,000, 15% have a hit.

{"Molecule": "Nc1nc(OCc2ccccc2)c2[nH]cnc2n1", "growth inhibition / %": -15.3}
{"Molecule": "CCCCCCCCCCC(C)Br (centres undefined)", "growth inhibition / %": 19.9}
{"Molecule": "O=C(CCl)Nc1ccc2c(c1)C(=O)c1ccc(NC(=O)CCl)cc1C2=O", "growth inhibition / %": 6.3}
{"Molecule": "CC1(O)OC(COc2ccc(Cl)cc2)COC1O (centres undefined)", "growth inhibition / %": 0.55}
{"Molecule": "CCOC(=O)CSc1c([N+](=O)[O-])ncn1C", "growth inhibition / %": 4.9}
{"Molecule": "CCOC(=O)c1coc(C(=O)OCC)c1C(=O)OCC", "growth inhibition / %": -4.95}
{"Molecule": "CCCCC1(CC)COC(CCC)OC1 (centres undefined)", "growth inhibition / %": 26.4}
{"Molecule": "Cc1cc(NC(=O)CSCC(=O)O)no1", "growth inhibition / %": -19.2}
{"Molecule": "Nc1ccc(C(=O)c2ccc(N)c(Br)c2)cc1Br", "growth inhibition / %": 15}
{"Molecule": "N#CCCN(CCCN1CCOCC1)CN1C(=O)c2ccccc2C1=O", "growth inhibition / %": 5.8}
{"Molecule": "CC1CCC2C(C)(C)C3CC12CC1OC13C (centres undefined)", "growth inhibition / %": -17.4}
{"Molecule": "Cc1cccc(CO)c1", "growth inhibition / %": 14.3}
{"Molecule": "O=C(O)c1cccc([N+](=O)[O-])c1O", "growth inhibition / %": -41.4}
{"Molecule": "CCS(=O)(=O)c1cc(=O)[nH]c(=O)[nH]1", "growth inhibition / %": 22.1}
{"Molecule": "Cc1cc(/C=C/c2ccc3cc(N(C)C)ccc3[n+]2C)c(C)n1-c1ccccc1", "growth inhibition / %": 87.2}
{"Molecule": "CC(C)NC(=O)OCc1c(COC(=O)NC(C)C)c(-c2ccc(Cl)c(Cl)c2)n2c1SCC2", "growth inhibition / %": 33.9}
{"Molecule": "C/C(=N/NC(N)=O)c1ccco1", "growth inhibition / %": 1.1}
{"Molecule": "Cc1nc2c(ccc3ccccc32)s1", "growth inhibition / %": 10.4}
{"Molecule": "O=S(=O)(O)CC(O)CN1CCN(CCO)CC1 (centres undefined)", "growth inhibition / %": -18.9}
{"Molecule": "N#CC(=Nc1cccc(F)c1)C1=C(O)c2ccccc2C1=O", "growth inhibition / %": 11.6}
{"Molecule": "O=C(O)c1ccccc1NCc1ccco1", "growth inhibition / %": -14.7}
{"Molecule": "Cc1cc(C(O)(c2ccc(Nc3ccccc3)cc2)c2ccc(Nc3ccc(S(=O)(=O)O)cc3)cc2)ccc1N (centres undefined)", "growth inhibition / %": -44.5}
{"Molecule": "CC(=O)Nc1c(C)cc(C)cc1C", "growth inhibition / %": 0.3}
{"Molecule": "Oc1ccccc1-c1nnco1", "growth inhibition / %": -1.9}
{"Molecule": "C[N+](C)=c1ccc2nc3c(cc(Nc4ccccc4)c4ccccc43)oc-2c1", "growth inhibition / %": 20.1}
{"Molecule": "CC1(C(=O)O)NC(C(=O)O)Cc2c1[nH]c1ccccc21 (centres undefined)", "growth inhibition / %": 26.5}
{"Molecule": "CC(C)(O)C#CC#CC(C)(C)O", "growth inhibition / %": 30.9}
{"Molecule": "CC(=O)OCC1=CC2OC(=O)C3=COC(OC4OC(CO)C(O)C(O)C4O)C1C32 (centres undefined)", "growth inhibition / %": 11.6}
{"Molecule": "CC1SC(N)=NC1=O (centres undefined)", "growth inhibition / %": 12.8}
{"Molecule": "C1CNC(C2=NCCN2)=N1", "growth inhibition / %": -4.85}
{"Molecule": "COc1ccc(NC(=O)CCl)cc1", "growth inhibition / %": 29.7}
{"Molecule": "CCOC(=O)Nc1nn[nH]n1", "growth inhibition / %": 7.75}
{"Molecule": "COc1cc(C(N)=O)cc(OC)c1OC", "growth inhibition / %": 2.9}
{"Molecule": "CC(C(=O)O)(C1CCCCC1)C1(O)CCCCC1 (centres undefined)", "growth inhibition / %": 29.8}
{"Molecule": "S=c1[nH]ccn1-c1ccccc1Cl", "growth inhibition / %": -17.8}
{"Molecule": "CC(=O)OCC1OC(OC2=C(CC=C(C)C)C(=O)c3ccccc3C2=O)C(OC(C)=O)C(OC(C)=O)C1OC(C)=O (centres undefined)", "growth inhibition / %": -7.2}
{"Molecule": "COc1cc(C(=O)N/N=C/c2cccc([N+](=O)[O-])c2)cc(OC)c1OC", "growth inhibition / %": -5.5}
{"Molecule": "CC1(C)OC(=O)C(c2ccsc2)C(=O)O1", "growth inhibition / %": -6.25}
{"Molecule": "OCc1cccc2ccccc12", "growth inhibition / %": 27.6}

// data source = PubChem BioAssay (NCI)
